target-of-assay: T1, IL-13RA2 endogenously expressed on U251 cells (human, UniProt Q14627 27-380)
T1 construct: whole, on cells; also called U251 cells expressing IL13RA2; U251 (IL-13RA2-positive)
T1 sequence (looked up): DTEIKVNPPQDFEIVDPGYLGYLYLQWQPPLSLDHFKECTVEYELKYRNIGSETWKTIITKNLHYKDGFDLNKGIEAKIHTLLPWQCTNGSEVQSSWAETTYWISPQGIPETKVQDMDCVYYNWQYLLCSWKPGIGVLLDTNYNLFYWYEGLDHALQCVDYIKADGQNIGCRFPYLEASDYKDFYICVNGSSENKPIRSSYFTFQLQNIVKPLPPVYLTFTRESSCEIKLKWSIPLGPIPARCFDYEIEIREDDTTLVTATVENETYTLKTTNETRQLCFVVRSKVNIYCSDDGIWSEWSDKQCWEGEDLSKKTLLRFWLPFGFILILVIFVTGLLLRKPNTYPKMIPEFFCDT
assay-comment: flow cytometry on U251 cells, scFv_Fc form, 5-fold dilutions from 2,000 nM, FITC anti-human IgG
pEC50: −log10 of the molar value.
assay-endpoint: pEC50

2D4 (scFv_Fc form) (Fc fusion, not shown: human Fc segment of the eukaryotic expression vector V152) scFv: EVQLLESGGGLVQPGGSLRLSCAASGFTFRKYAMGWVRQAPGKGLEWVSGISGSVGSTYYADSVKGRFTISRDNSKNTLYLQMNSLRAEDTAVYYCAKVRYGWGAGAFDYWGQGTLVTVSSGGGGSGGGGSGGGGSDIQMTQSPSTLSASVGDRVTITCRASQSISSWLAWYQQKPGKAPKLLIYDASSLESGVPSRFSGSGSGTEFTLTISSLQPDDFATYYCQQYDTYPPITFGQGTKVEIK : 9.43

Every entry's value here was drawn from patent US20190359723A1.
